# Tested Target: T1, human LRRC33-proTGFβ1 complex (human, UniProt P01137 30-390; Q86YC3 19-650)
# T1 construct: also called hLRRC33-proTGFβ1; hLRRC33
# T1 sequence (P01137 30-390 limits assumed, chain 1 of 2): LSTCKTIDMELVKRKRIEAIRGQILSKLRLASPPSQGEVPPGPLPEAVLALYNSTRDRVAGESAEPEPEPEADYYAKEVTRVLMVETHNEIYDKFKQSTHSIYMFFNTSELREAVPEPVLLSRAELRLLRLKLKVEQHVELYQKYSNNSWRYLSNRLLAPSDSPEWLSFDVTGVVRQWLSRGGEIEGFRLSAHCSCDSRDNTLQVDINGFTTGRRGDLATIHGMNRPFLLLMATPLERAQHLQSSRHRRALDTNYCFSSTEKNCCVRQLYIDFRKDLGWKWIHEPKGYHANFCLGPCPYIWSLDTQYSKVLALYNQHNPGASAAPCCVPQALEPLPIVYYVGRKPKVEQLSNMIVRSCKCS
# T1 sequence (Q86YC3 other isoform, or with tags, fused parts or gaps limits assumed, chain 2 of 2): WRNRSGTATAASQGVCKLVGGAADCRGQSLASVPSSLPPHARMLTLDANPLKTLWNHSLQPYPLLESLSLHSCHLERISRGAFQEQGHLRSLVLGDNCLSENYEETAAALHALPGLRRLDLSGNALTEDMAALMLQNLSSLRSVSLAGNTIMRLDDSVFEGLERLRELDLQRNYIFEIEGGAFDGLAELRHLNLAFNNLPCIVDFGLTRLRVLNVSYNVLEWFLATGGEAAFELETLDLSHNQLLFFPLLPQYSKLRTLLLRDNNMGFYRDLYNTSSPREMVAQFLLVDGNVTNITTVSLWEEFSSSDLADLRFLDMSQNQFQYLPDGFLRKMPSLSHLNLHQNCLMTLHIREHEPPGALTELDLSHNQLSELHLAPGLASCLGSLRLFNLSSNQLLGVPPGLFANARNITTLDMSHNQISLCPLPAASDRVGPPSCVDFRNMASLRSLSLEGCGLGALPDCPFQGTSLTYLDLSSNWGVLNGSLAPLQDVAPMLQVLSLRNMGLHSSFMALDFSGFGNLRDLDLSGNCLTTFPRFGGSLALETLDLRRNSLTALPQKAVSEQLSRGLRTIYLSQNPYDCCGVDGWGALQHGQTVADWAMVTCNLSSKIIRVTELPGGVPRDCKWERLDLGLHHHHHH
# Procedure Text: BLI (Octet)
Observation Type: pKd
By convention, pKd is the negative base-10 log of a molar concentration.

{"Binder": "Ab30 (antibody, IgG4, V domains shown) VH: EVQLVESGGGLVQPGGSLRLSCAASGFTFSSFSMDWVRQAPGKGLEWVSYISPDASTIYYADSVKGRFTISRDNAKNSLYLQMNSLRAEDTAVYYCARGTLDYGDMLDPWGQGTLVTVSS VL: DIQMTQSPSSLSASVGDRVTITCQASQDITNYLNWYQQKPGKAPKLLIYDASNLETGVPSRFSGSGSGTDFTFTISSLQPEDIATYYCQQADNHPPWTFGGGTKVEIK", "Endpoint Result": 9.27}
{"Binder": "Ab16 (antibody, V domains shown) VH: EVQLLESGGGLVQPGGSLRLSCAASGFTFSNYAMSWVRQAPGKGLEWVSAISGSGFTTYYADSVKGRFTISRDNSKNTLYLQMNSLRAEDTAVYYCARVSSGHWDFDYWGQGTLVTVSS VL: DIQLTQSPSSLSASVGDRVTITCRASQSISSYLNWYQQKPGKAPKLLIYAASNLQSGVPSRFSGSGSGTDFTLTISSLQPEDFATYYCQQTYTVPLTFGGGTKVEIK", "Endpoint Result": 9.20}

Look up pKd: Ab24 (antibody, IgG4, V domains shown) VH: EVQLVESGGGLVQPGRSLRLSCAASGFTFSSFAMYWVRQAPGKGLEWVSYISPDASTIYYADSVKGRFTISRDNAKNSLYLQMNSLRAEDTAVYYCARGVLDYGDMLDPWGQGTLVTVSS VL: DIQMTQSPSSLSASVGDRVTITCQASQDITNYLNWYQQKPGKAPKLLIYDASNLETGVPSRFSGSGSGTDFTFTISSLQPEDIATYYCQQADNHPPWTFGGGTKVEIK
9.39

Look up pKd: Ab33 (antibody, IgG4, V domains shown) VH: EVQLVESGGGLVQPGGSLRLSCAASGFTFSSFSMNWVRQAPGKGLEWVSYISPSADTIYYADSVKGRFTISRDNAKNTLYLQMNSLRAEDTAVYYCAHGVLDYGDMLDPWGQGTLVTVSS VL: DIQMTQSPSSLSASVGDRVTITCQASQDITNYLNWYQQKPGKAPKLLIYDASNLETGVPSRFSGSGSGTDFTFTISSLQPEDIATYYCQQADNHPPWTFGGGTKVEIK
9.47
